Listing: protein stability index of selected variants
B1: ELF3 (parent)
chain: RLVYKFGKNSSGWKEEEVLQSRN

Variants of: B1
Assay: protein stability index of a GFP-peptide fusion (GPS, HEK-293T) (PSI 1-6); higher = more stable;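 further: lentivirally expressed fusions sorted by FACS into six bins by GFP to DsRed ratio, PSI derived from sequencing read proportions per bin multiplied by bin number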
Settings: c terminus: native
Simply state the number, no unit and no words.

Field: example entries. Status: answers known.
- change: "G12H"
  protein stability index: 2.02
- change: "L2V"
  protein stability index: 2.71
- change: "K14I"
  protein stability index: 2.25
- change: "V18G"
  protein stability index: 2.9
- change: "G12W"
  protein stability index: 1.88
- change: "K8A"
  protein stability index: 2.77

Now for the variant whose protein stability index we want.
Data request: May I ask what protein stability index has been recorded for K14H ?
Data returned: 1.41
